Target: Coagulation factor XII (Homo sapiens) (UniProt P00748)
Sequence (whole entry): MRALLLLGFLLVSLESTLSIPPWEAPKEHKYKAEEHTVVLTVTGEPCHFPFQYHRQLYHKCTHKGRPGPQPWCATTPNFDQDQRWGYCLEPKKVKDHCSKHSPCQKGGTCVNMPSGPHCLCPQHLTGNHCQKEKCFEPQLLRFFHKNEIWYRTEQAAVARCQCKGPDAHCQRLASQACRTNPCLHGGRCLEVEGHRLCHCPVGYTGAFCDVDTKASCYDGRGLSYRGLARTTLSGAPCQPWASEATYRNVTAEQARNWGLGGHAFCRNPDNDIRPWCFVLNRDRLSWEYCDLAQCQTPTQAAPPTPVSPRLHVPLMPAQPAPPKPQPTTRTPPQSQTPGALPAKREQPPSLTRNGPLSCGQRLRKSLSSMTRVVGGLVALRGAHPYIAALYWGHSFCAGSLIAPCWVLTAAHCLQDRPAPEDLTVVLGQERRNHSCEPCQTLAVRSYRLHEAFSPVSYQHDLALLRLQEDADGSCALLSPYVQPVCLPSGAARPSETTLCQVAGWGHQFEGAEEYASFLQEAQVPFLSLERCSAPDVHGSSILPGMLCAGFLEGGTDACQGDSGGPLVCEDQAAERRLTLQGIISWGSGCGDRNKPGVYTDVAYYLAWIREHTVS
Assay: Inhibition of human factor 12a using S-2302 as substrate assessed as para-nitroaniline release at 50 uM preincubated for 10 mins followed by substrate addition measured after 30 mins by HPLC-UV analysis
Measurement Type: inhibition (%)

Some entries whose results are on file:
O=C(O)c1cc(Cl)ccc1NC(=O)c1cc2cc(Cl)cc(Br)c2oc1=O | 75
O=C(Nc1cc(Cl)ccc1O)c1cc2cc(Cl)cc(Br)c2oc1=O | 99
O=C(Nc1ccccc1)c1cc2cc(Cl)cc(Br)c2oc1=O | 90
O=C(Nc1ccc(Cl)cc1O)c1cc2cc(Cl)cc(Br)c2oc1=O | 99
NCCNC(=O)c1cc2cc(Cl)cc(Br)c2oc1=O.O=C(O)C(F)(F)F | 23
Cl.NCc1ccc2oc(=O)c(C(=O)Nc3ccccc3)cc2c1 | 26

I: O=C(NCCN1CCOCC1)c1cc2cc(Cl)cc(Cl)c2oc1=O
II: CCN(CC)Cc1ccc2oc(=O)c(C(=O)Nc3ccccc3)cc2c1
Min inhibition? I | II Give the chosen item's label as your response.
II
(II: 14%, I: 20%)

1: O=C(Nc1ccccc1O)c1cc2cc(Cl)cc(Br)c2oc1=O
2: CN(C)CCNC(=O)c1cc2cc(Br)cc(Br)c2oc1=O
3: O=C(Nc1ccccc1)c1cc2cc(CN3CCCC3)ccc2oc1=O
4: O=C(Nc1ccccc1)c1cc2cc(CO)ccc2oc1=O
Thanks in advance: please rank these 4 entries by inhibition, highest to lowest. # list labels per requested ordering
1, 2, 3, 4

P: O=C(Nc1ccccc1)c1cc2cc(CN3CCCCC3)ccc2oc1=O
Q: O=C(Nc1ccccc1)c1cc2cc(CN3CCOCC3)ccc2oc1=O
R: O=C(Nc1cccc(O)c1)c1cc2cc(Cl)cc(Br)c2oc1=O
Thanks in advance: please rank these 3 entries by inhibition, highest to lowest. # list labels per requested ordering
R, P, Q

1: O=C(NCCN1CCOCC1)c1cc2cc(Br)cc(Br)c2oc1=O
2: CN(C)CCNC(=O)c1cc2cc(Cl)cc(Cl)c2oc1=O
Parameter check: reported inhibition is higher for which label, 1 or 2 ? Give the chosen item's label as your response.
2
(2: 29%, 1: 14%)

P: O=C(NCCN1CCOCC1)c1cc2cc(Cl)cc(Br)c2oc1=O
Q: O=C(Nc1ccc(O)cc1)c1cc2cc(Cl)cc(Br)c2oc1=O
R: CN(C)CCNC(=O)c1cc2cc(Cl)cc(Br)c2oc1=O
Your job: order these 3 records by inhibition, ascending. # list labels per requested ordering
P, R, Q
